# measurementDescription: small-molecule microarray binders of probe aDKK1, primary screen, biochemical, biotinylated probe, 635/667 nm fluorescence (AID 1099);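 further: score merges 667nm spot fluorescence with signal to noise across triplicate slides; reference of the scale not given here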
# condition: higher = more signal
Classify as follows. Reported composite z-score greater than or equal to 0.1: Condition met. Reported composite z-score below: Condition not met.

Q: Evaluate C=C(COC)/C(=C/C[C@@H](OC(C)=O)c1cccc(OCCO)c1)c1cnc2ccccc2c1 : composite z-score at minimum 0.1?
Result: Condition met

Q: Evaluate CC1CC/C=C\[C@H]2OC34C=CCN(C(C)C)C(=O)[C@H]3N(C(C)CO)C(=O)[C@@H]4C2C(=O)O1 (stereo partly drawn) : composite z-score at minimum 0.1?
Result: Condition not met

Q: Evaluate Cc1ccc(S(=O)(=O)N2[C@@H](c3ccccc3)C(C(=O)O)=C[C@H]2C(C)(C)C)cc1 : composite z-score at minimum 0.1?
Result: Condition met

Q: Evaluate COc1ccc([Si](C)(C)[C@H]2[C@H](CCO)O[C@@]3(C(=O)N(Cc4ccccc4)c4ccc(NC(=O)[C@H](C)O)cc43)[C@@H]2C)cc1 : composite z-score at minimum 0.1?
Result: Condition met

Q: Evaluate COc1ccc([Si](C)(C)[C@H]2[C@H](CC(=O)N3CCC[C@H]3CO)O[C@@]3(C(=O)N(Cc4cccc(N5CCCCC5=O)c4)c4ccccc43)[C@@H]2C)cc1 : composite z-score at minimum 0.1?
Result: Condition not met

Q: Evaluate C=CCC(OC(C)=O)[C@@H]1[C@@H](N(Cc2ccc(-c3ccccc3)cc2)C(=O)Cc2ccc(OC)cc2)c2cc(OCCCO)ccc2N1C(=O)Cc1ccc(OC)cc1 (stereo partly drawn) : composite z-score at minimum 0.1?
Result: Condition met

Q: Evaluate C#CCN(C(=O)OC(C)(C)C)[C@H](CO)c1ccccc1 : composite z-score at minimum 0.1?
Result: Condition not met

Q: Evaluate Cc1ccc(S[C@]2(C(=O)NC(C)C)CC(=O)N(Cc3ccccc3)[C@@H]2c2ccc(CO)cc2)cc1 : composite z-score at minimum 0.1?
Result: Condition met

// data source = PubChem BioAssay
